# system name: CDK7/Cyclin H/MAT1 complex (Homo sapiens, UniProt P50613)
# Sequence (P50613 whole entry, species assumed): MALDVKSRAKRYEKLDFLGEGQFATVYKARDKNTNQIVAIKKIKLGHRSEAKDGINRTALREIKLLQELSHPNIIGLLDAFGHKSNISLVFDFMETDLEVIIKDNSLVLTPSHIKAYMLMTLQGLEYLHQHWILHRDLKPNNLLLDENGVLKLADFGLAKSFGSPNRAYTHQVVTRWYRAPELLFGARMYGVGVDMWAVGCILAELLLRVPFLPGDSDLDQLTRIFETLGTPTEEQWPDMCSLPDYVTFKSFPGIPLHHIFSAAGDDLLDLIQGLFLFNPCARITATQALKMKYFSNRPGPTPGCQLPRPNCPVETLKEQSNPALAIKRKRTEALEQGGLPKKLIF
# Sequence (P51946 whole entry partner, species assumed): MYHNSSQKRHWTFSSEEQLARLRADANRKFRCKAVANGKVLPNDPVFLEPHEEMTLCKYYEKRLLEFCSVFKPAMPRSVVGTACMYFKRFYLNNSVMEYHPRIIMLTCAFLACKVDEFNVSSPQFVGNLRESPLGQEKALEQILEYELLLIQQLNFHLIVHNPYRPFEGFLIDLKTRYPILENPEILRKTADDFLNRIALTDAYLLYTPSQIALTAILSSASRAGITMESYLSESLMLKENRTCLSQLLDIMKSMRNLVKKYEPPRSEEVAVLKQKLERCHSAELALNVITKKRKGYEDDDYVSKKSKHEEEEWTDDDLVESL
# Sequence (P51948 whole entry partner, species assumed): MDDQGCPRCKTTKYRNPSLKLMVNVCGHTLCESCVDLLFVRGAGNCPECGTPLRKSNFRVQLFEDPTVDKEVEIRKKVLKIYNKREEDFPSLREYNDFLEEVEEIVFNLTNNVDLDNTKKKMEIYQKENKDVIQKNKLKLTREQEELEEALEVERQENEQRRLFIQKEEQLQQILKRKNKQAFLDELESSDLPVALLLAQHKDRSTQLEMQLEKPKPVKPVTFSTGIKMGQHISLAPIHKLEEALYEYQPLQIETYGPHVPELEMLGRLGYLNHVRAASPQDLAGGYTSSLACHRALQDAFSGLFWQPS
# experimental details: CDK7 inhibition assay (Caliper/LabChip EZ Reader kinase assay)
# Assay type: biochemical
# study conditions: Table 1; CDK7/Cyclin H/MAT1 6 nM, ATP 2 mM, 35 min at 27° C.
pIC50: −log10 of the molar value.
endpoint name: pIC50

Examples with their reported pIC50 follow.
{"compound": "FC(F)(F)c1cnc(NC2CNCc3ccccc32)nc1-c1c[nH]c2ccccc12 (centres unmarked) [Compound 215]", "system name": "CDK7/Cyclin H/MAT1 complex (Homo sapiens, UniProt P50613)", "endpoint name": "pIC50", "experimental result": "6.70 to 7.70"}
{"compound": "c1ccc2c(-c3nc(N[C@H]4CCCNC4)ncc3C3CC3)c[nH]c2c1", "system name": "CDK7/Cyclin H/MAT1 complex (Homo sapiens, UniProt P50613)", "endpoint name": "pIC50", "experimental result": "6.70 to 7.70"}
{"compound": "FC(F)(F)c1cnc(N[C@H]2CCCNC2)nc1-c1c[nH]c2cc(-c3ccc4c(c3)OCCO4)ccc12", "system name": "CDK7/Cyclin H/MAT1 complex (Homo sapiens, UniProt P50613)", "endpoint name": "pIC50", "experimental result": "6.70 to 7.70"}
{"compound": "Ic1cnc(N[C@H]2CCCNC2)nc1-c1c[nH]c2ccccc12", "system name": "CDK7/Cyclin H/MAT1 complex (Homo sapiens, UniProt P50613)", "endpoint name": "pIC50", "experimental result": "> 7.70"}
{"compound": "N#Cc1cc2[nH]cc(-c3nc(N[C@H]4CCCNC4)ncc3C(F)(F)F)c2cc1F", "system name": "CDK7/Cyclin H/MAT1 complex (Homo sapiens, UniProt P50613)", "endpoint name": "pIC50", "experimental result": "> 7.70"}

Let me know recorded pIC50 for COCn1cc(-c2nc(NC3CCCNC3)ncc2C(F)(F)F)c2ccc(C#N)nc21 (centres unmarked) , thanks.
5.30 to 6.70

Let me know recorded pIC50 for Cc1noc([C@H]2CC[C@H](Nc3ncc(C(F)(F)F)c(-c4c[nH]c5cc(C#N)ccc45)n3)CN2)n1 , thanks.
6.70 to 7.70

Let me know recorded pIC50 for CCOc1ccccc1-c1ccc2c(-c3nc(NC4CCCNC4)ncc3C(F)(F)F)c[nH]c2c1 (centres unmarked) , thanks.
6.70 to 7.70

====

# system name: CDK7/Cyclin H/MAT1 complex (Homo sapiens)
# experimental details: CDK7 inhibition assay (Caliper/LabChip EZ Reader kinase assay)
# Format: biochemical
# study conditions: Table 1; CDK7/Cyclin H/MAT1 6 nM, ATP 2 mM, 35 min at 27° C.
endpoint name: IC50

{"molecule": "FC(F)(F)c1cnc(N[C@H]2CCCNC2)nc1-c1n[nH]c2ccccc12", "IC50": "< 20 nM"}
{"molecule": "Cc1c(-c2ccc3c(-c4nc(N[C@H]5CCCNC5)ncc4C(F)(F)F)c[nH]c3c2)c[nH]c(=O)c1C#N", "IC50": "< 20 nM"}
{"molecule": "Cn1cc(-c2ccc3c(-c4nc(N[C@H]5CCCNC5)ncc4C(F)(F)F)c[nH]c3c2)cc1C#N", "IC50": "< 20 nM"}
{"molecule": "FC(F)(F)c1cnc(N[C@H]2CNC[C@@H](c3nnc4ccccn34)C2)nc1-c1c[nH]c2ccccc12", "IC50": "200 to 5000 nM"}
{"molecule": "FC(F)(F)c1cnc(N[C@H]2CCCNC2)nc1-c1c[nH]c2cc(-c3cnccn3)ccc12", "IC50": "< 20 nM"}
{"molecule": "Clc1cnc(N[C@@H]2CN3CCC2CC3)nc1-c1c[nH]c2ccccc12", "IC50": "> 5000 nM"}
{"molecule": "Cc1n[nH]cc1-c1cccc2c(-c3nc(NC4CCCNC4)ncc3C(F)(F)F)c[nH]c12 (stereo in doubt)", "IC50": "< 20 nM"}
{"molecule": "FC(F)(F)c1cnc(N[C@H]2CCCNC2)nc1-c1c[nH]c2cc(-c3ncc[nH]3)ccc12", "IC50": "< 20 nM"}

Let me know recorded IC50 for C=CC(=O)N1CCC(CO[C@H]2CNC[C@@H](Nc3ncc(C(F)(F)F)c(-c4c[nH]c5c(S(C)(=O)=O)cccc45)n3)C2)CC1 , thanks.
20 to 200 nM

Let me know recorded IC50 for CP(C)(=O)c1ccc2c(-c3nc(N[C@H]4CCCNC4)ncc3C(F)(F)F)c[nH]c2c1 , thanks.
20 to 200 nM

Let me know recorded IC50 for FC(F)(F)c1cnc(N[C@H]2CCCNC2)nc1-c1c[nH]c2cc(-c3nccs3)ccc12 , thanks.
< 20 nM

Let me know recorded IC50 for FC(F)(F)c1cnc(N[C@H]2CCC3(CC3)NC2)nc1-c1c[nH]c2ccccc12 , thanks.
< 20 nM

Let me know recorded IC50 for CS(=O)(=O)c1ccc2c(-c3nc(N[C@H]4CCCN(C5CC5)C4)ncc3C(F)(F)F)c[nH]c2c1 , thanks.
20 to 200 nM

Let me know recorded IC50 for OCc1ncccc1-c1ccc2c(-c3nc(N[C@H]4CCCNC4)ncc3C(F)(F)F)c[nH]c2c1 , thanks.
< 20 nM

Let me know recorded IC50 for CCc1cnc(N[C@H]2CCCNC2)nc1-c1c[nH]c2c(S(=O)(=O)C(C)C)cccc12 , thanks.
20 to 200 nM
